Data credit: patent US20070105779A1

# tgt: HLA-A2
# experimental.details: functional competition vs tyrosinase 368-376 on T2 cells, readout lysis by CTL LAU 156/34; relative to SEQ ID NO: 1
Reported Relative binding by item:
Enter a number only.

// below: answered binders
binder	Relative binding
AAAPAIFYA (modifications not checked) [… (SEQ ID NO: 4)]	0.9
AAAAKIFYA (modifications not checked) [… (SEQ ID NO: 3)]	0.16
AAGPKIFYA (modifications not checked) [… (SEQ ID NO: 2)]	0.07
AAAPKAFYA (modifications not checked) [… (SEQ ID NO: 5)]	0.1

stdin: Entry AAAPKIFYA (modifications not checked) [… (SEQ ID NO: 1)] has what Relative binding?
stdout: 1
